Form field: INHIBITION (one value per entry).
tested on: Plasmodium falciparum; assay: Screen against P. falciparum Asexual Blood Stage (ABS), at 5uM; assay type: functional, Dd2; conditions: tested at 5 uM
Out of some 65,000 compounds screened, about 2,100 (3.2%) showed an effect of 50% or more. The median lay at about -52%. This is one part of a sample in which strong results are shown more often than they occur.
Give the value, in units of %, as a plain number.

| molecule | reading.unit | INHIBITION |
| --- | --- | --- |
| CC(C)(C)n1ncc2c1NC(=O)CSC2c1ccc2c(c1)OCCO2 (stereo unspecified) | % | -24.5 |
| O=C(N[C@H]1CN[C@H]2CCCO[C@H]21)c1ccno1 | % | -87.2 |
| Cc1nn(C)c2nc(N3CCCCC3c3cccnc3)sc12 (stereo unspecified) | % | -114 |
| Cc1ccc(C(=O)N2CC[C@H]3[C@H]2CCN3CC2CCOCC2)cn1 | % | -131 |
| OCC1CCCCN1c1ccc(-c2nc(-c3ccccc3F)no2)cn1 (stereo unspecified) | % | 75.5 |
| Cc1cc(C)cc(OCC(=O)N2CCCN(CC(N)=O)CC2)c1 | % | -21.7 |
| CN1CC[C@H]2OCC[C@@]2(C(=O)NCCc2ccccn2)C1 | % | 12.7 |
| Oc1ccc(Cl)cc1CNCc1cccc(C(F)(F)F)c1 | % | 89 |

INHIBITION lookup needed for NC(=O)CN1CCCN(C(=O)COc2cccc(F)c2)CC1 , thanks.
-58.7

// returns reported INHIBITION for input O=C(C[C@@H]1COC[C@H]2CN(CC3CC3)C[C@@H]12)NCc1cccnc1
-75.7

Given O=C(C1CCCC1)N1CCO[C@@H]2CNC[C@@H]21 , state its recorded INHIBITION.
8.33

----------
// reported INHIBITION per item
system: Plasmodium falciparum; test: Screen against P. falciparum Asexual Blood Stage (ABS), at 5uM; format: functional, Dd2; conditions: tested at 5 uM
Among all 65,000 compounds or so, about 2,100 (3.2%) showed an effect of 50% or more. The median lay at about -52%. This is one part of a sample in which strong results are shown more often than they occur.
Record the value in %, omitting the unit from your answer.

A selection of reference data follows.
| compound | measured.target | measure | readout.value |
| --- | --- | --- | --- |
| Fc1ccc(CN2CCC3(CC2)CCN(Cc2nccs2)CC3)cc1 | Plasmodium falciparum | INHIBITION | 86.6 |
| COCCN1C[C@@H](C)[C@@]2(COCCN(C(=O)c3ccno3)C2)C1 | Plasmodium falciparum | INHIBITION | -103 |

# input compound: CC(N)C(=O)N1CCC(Oc2cccc(C(F)(F)F)c2)CC1 (centres undefined) ; wanted: its INHIBITION
76.6

----------
Below, each entry is listed with its recorded INHIBITION.
tested on: Plasmodium falciparum; assay: Screen against P. falciparum Asexual Blood Stage (ABS), at 5uM; type: functional, Dd2; conditions: tested at 5 uM
The campaign covered roughly 65,000 compounds. About 2,100 (3.2%) showed an effect of 50% or more. The median lay at about -52%. The entries come from a sample that favours strong results as a whole.
Please append the unit to your numeric answer.

Reported INHIBITION for CN(Cc1cccc(O)c1)CC1CCCN(CCc2ccc(Cl)cc2)C1 (stereo unspecified) : what is it?
83.5%

Fill in the blank: the reported INHIBITION of CC(C)COC(=O)N1CCC2(CCNC2)C1 (stereo unspecified) is ____.
-93.7%

Which INHIBITION reading was recorded for the molecule COC(=O)C(C)(C)NC(=O)c1cnc(Cc2ccc(F)cc2)s1 ?
75.4%

Could you share which INHIBITION value was measured for Cc1cc(F)ccc1CN1CCC(O)(CN2CCCCC2)C1 (stereo unspecified) ?
78.8%

Please look up its INHIBITION: CCOc1ccc2ccccc2c1CNCC1CCNCC1
91.6%

I would be grateful if you could share the reported INHIBITION for CS(=O)(=O)c1ccc(-c2cc(O)cc(CCC3CCCCN3)c2)cc1 (stereo unspecified) .
70.3%

Value lookup for INHIBITION; key = O=C(Cc1ccccn1)N1CCN2C[C@H](Oc3cncnc3)C[C@H]2C1
-1.9%

Item c1ccc(CO[C@@H]2C[C@H]3CN(c4ncccn4)CCN3C2)nc1 has what recorded INHIBITION?
-38.6%

Reported INHIBITION, molecule COc1ccc(F)cc1C(=O)C1CCCN(Cc2ccc(C)s2)C1 (stereo unspecified) : ____
17%

Query: INHIBITION; subject: O=S(=O)(C1CC1)N1CCOC2(CCCN(Cc3ccccn3)C2)C1 (stereo unspecified)
-97.5%

For the molecule shown here, Cc1nc[nH]c1CN(C)CC1CCCN(CCc2ccc(Cl)cc2)C1 (stereo unspecified) , give the reported INHIBITION.
82.9%

----------
system: Plasmodium falciparum; experiment: Screen against P. falciparum Asexual Blood Stage (ABS), at 5uM; assay type: functional, Dd2; conditions: tested at 5 uM
Hit rate of the full screen: of about 65,000 compounds, about 2,100 (3.2%) showed an effect of 50% or more. The median lay at about -52%. What follows is part of a selection rich in strong results, with near analogues and random picks from the rest.
measure: INHIBITION (%)
Please respond with the number in % and leave the unit unwritten.

Worked cases, answers included:
| compound | INHIBITION / % |
| --- | --- |
| O=C(C1CCCCC1)N1C[C@@H]2CCNC[C@@H]21 | 9.5 |
| Cc1nc(CN2CCOCC3(CCN(c4ncccn4)C3)C2)cs1 (centres undefined) | -42.9 |
| Cc1cc(CC(=O)N2CCN(C)[C@@H]3CS(=O)(=O)C[C@@H]32)ccc1F | -54.5 |

GET /values?readout=INHIBITION&item= Cc1oncc1C(=O)N[C@@H]1CN(CC2CC2)C[C@@H]2CCCO[C@@H]21
-164

What value of measured INHIBITION is listed for c1cncc(NCCNC2CCCNC2)c1 (centres undefined) ?
-1.26

Given the compound COc1ccccc1C1SCC(=O)Nc2n[nH]cc21 (centres undefined) , what is its reported INHIBITION?
-117

GET /values?readout=INHIBITION&item= CCCN1C(=O)CC2(CCCNC2)C1=O (centres undefined)
-90.5

So what does the record say about INHIBITION for CC(C)CN1CCNC(=O)C12CCN(C(=O)c1ccccn1)CC2 ?
-97.5

What does the record list as INHIBITION for Cn1cc(C(=O)NCc2cncc3c2CCNC3)cn1 ?
-118

I would be grateful if you could share the reported INHIBITION for C[C@H]1C[C@@H]2CCN(CC3CCOCC3)C[C@H]2O1 .
-49.5

Give its INHIBITION value. Item: Cc1cc(C)c2c(NCCC34CCCN3CCC4)ncnc2n1
-48.6

Please report the recorded INHIBITION for COCCCNC(=O)c1cn(C(C)(C)C)c2ncccc12 .
-71.7

Consider the compound Cc1cnccc1NCCNC1CCN(CC(C)C)CC1 and give its measured INHIBITION.
80

For CCc1ncc(CN(CCc2ccccc2)Cc2cccs2)cn1 , what is its reported INHIBITION?
-80.9

Can you share its INHIBITION? I mean this compound: O=C([C@@H]1CC[C@@H]2[C@@H](CCN2Cc2ccncc2)O1)N1CCCCO1
-84.8

Requested read-out: INHIBITION. Entry: CS(=O)(=O)CCCNCc1c(Cl)cccc1N1CCCC1
72

Which INHIBITION reading was recorded for the compound c1cnc(N2CCO[C@H]3CN(CC4CC4)C[C@H]32)nc1 ?
3.32

Given the entry CCNC(=O)CN1CCSC2(CCCCC2)C1 , report its measured INHIBITION.
-49.4

Recorded INHIBITION for CC(C)NC(=O)[C@H]1C[C@H]2NCCO[C@@H]2C1 , please?
-33.9

----------
tested on: Plasmodium falciparum; experiment: Screen against P. falciparum Asexual Blood Stage (ABS), at 5uM; assay type: functional, Dd2; conditions: tested at 5 uM
Among all 65,000 compounds or so, about 2,100 (3.2%) showed an effect of 50% or more. The median lay at about -52%. Only a selection was taken, and strong results are over-represented in it overall.
Some molecules, each annotated with its measured INHIBITION.
# number only, unit % dropped from output

// known answers, use as guide
| molecule | measured.target | readout.value |
| --- | --- | --- |
| Clc1cc(N2CCN3CCCCC3C2)nc2[nH]ccc12 (stereo unspecified) | Plasmodium falciparum | 42.6 |
| c1ccc(O[C@@H]2CC[C@H]3[C@H]2OCCN3Cc2ccsc2)nc1 | Plasmodium falciparum | -77.6 |
| COc1ccc(C(=O)C2CCCN(Cc3cccc(F)c3)C2)c(OC)c1 (stereo unspecified) | Plasmodium falciparum | 23.9 |
| CCOc1cccc(CN2CCCC(Nc3ccc(F)cc3)C2)c1O (stereo unspecified) | Plasmodium falciparum | 86.3 |

I would be grateful if you could share the reported INHIBITION for CC(=O)N1CCN([C@@H]2CN(C(=O)Cc3ccccc3C)C[C@H]2O)CC1 .
-146

Need INHIBITION, item c1cnc(N2CCO[C@H]3CN(CC4CCOCC4)C[C@H]32)nc1
-125
